Catalogue of IC50 readings, one per entry.
# Target: TNFα (Homo sapiens)
# Sequence (P01375 77-233 limits assumed): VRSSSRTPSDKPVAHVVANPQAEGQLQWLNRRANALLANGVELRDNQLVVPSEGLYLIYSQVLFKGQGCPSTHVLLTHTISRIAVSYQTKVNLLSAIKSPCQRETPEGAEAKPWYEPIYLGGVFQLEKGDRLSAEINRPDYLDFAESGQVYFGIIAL
# Test Details: TNF-Induced HEK-Blue Assay
# Format: cell-based
# Conditions: HEK-Blue-CD40L cells, NF-kB-driven secreted alkaline phosphatase reporter; TNFα 0.5 ng/ml; 18 h; read-out: TNF induced HEK-Blue assay IC50 value
Positions of bridges follow the written chain, without caps; N, C: chain ends. Non-standard residues stand in square brackets, D forms with d. Residues, ends and D or L forms follow the SMILES beside them. Bip(4'-COOH) = N[C@@H](Cc1ccc(-c2ccc(C(=O)O)cc2)cc1)C(=O)O; Bip(4'-NHAc) = CC(=O)Nc1ccc(-c2ccc(C[C@H](N)C(=O)O)cc2)cc1; Ala(morpholin-4-yl) = N[C@@H](CN1CCOCC1)C(=O)O; Bip = N[C@@H](Cc1ccc(-c2ccccc2)cc1)C(=O)O; hPhe = N[C@@H](CCc1ccccc1)C(=O)O; 2Pal = N[C@@H](Cc1ccccn1)C(=O)O; Cha = N[C@@H](CC1CCCCC1)C(=O)O; d(αMeP) = C[C@]1(C(=O)O)CCCN1; Tle = CC(C)(C)[C@H](N)C(=O)O; Sar = CNCC(=O)O

| Compound | Result Type | Value |
| --- | --- | --- |
| CC(C)C[C@@H]1NC(=O)[C@H](Cc2ccc(O)cc2)NC(=O)[C@H](C(C)C)NC(=O)[C@@H]2CCCN2C(=O)[C@H](C(C)C)NC(=O)[C@@H](CCCNC(=N)N)NC(=O)[C@H](CC(=O)O)NC(=O)[C@@]2(C)CCCN2C(=O)CN(C)C(=O)[C@H](Cc2ccc(-c3ccccc3)cc2)NC(=O)[C@H](Cc2ccc(-c3ccccc3)cc2)NC(=O)[C@H](CN2CCOCC2)NC(=O)CSC[C@@H](C(=O)NCC(N)=O)NC1=O [Example 102] ({CH2CO}-[Ala(morpholin-4-yl)][Bip][Bip][Sar][d(αMeP)]D[dR]VPVYLCG-NH2; thioether N-13) | IC50 | 200 to 2000 nM |
| CC(C)C[C@@H]1NC(=O)[C@H](CCCNC(=N)N)NC(=O)[C@H](C(C)C)NC(=O)[C@@H]2CCCN2C(=O)[C@H](C(C)C)NC(=O)[C@H](CCCNC(=N)N)NC(=O)[C@H](CC(=O)O)NC(=O)[C@@H]2CCCN2C(=O)CN(C)C(=O)[C@H](Cc2ccc(-c3ccccc3)cc2)NC(=O)[C@H](Cc2ccc(-c3ccccc3)cc2)NC(=O)[C@H](CCCCN)NC(=O)CSC[C@@H](C(=O)NCC(N)=O)NC1=O [Example 6] ({CH2CO}-K[Bip][Bip][Sar]PDRVPVRLCG-NH2; thioether N-13) | IC50 | 200 to 2000 nM |
| CC(C)C[C@@H]1NC(=O)[C@H](Cc2ccc(O)cc2)NC(=O)[C@H](C(C)C)NC(=O)[C@@H]2CCCN2C(=O)[C@H](C(C)C)NC(=O)[C@H](CCCNC(=N)N)NC(=O)[C@H](CC(=O)O)NC(=O)[C@@H]2CCCN2C(=O)CN(C)C(=O)[C@H](Cc2ccc(-c3ccccc3)cc2)NC(=O)[C@H](Cc2ccc(-c3ccccc3)cc2)NC(=O)[C@H](CN2CCOCC2)NC(=O)CSC[C@@H](C(=O)NCC(N)=O)NC1=O [Example 49] ({CH2CO}-[Ala(morpholin-4-yl)][Bip][Bip][Sar]PDRVPVYLCG-NH2; thioether N-13) | IC50 | 50 to 200 nM |

Prompt line: Input CC(C)C[C@@H]1NC(=O)[C@H](CCc2ccccc2)NC(=O)[C@H](C(C)C)NC(=O)[C@@H]2CCCN2C(=O)[C@H](C(C)C)NC(=O)[C@@H](CCCNC(=N)N)NC(=O)[C@H](CC(=O)O)NC(=O)[C@H](Cc2ccc(O)cc2)NC(=O)CN(C)C(=O)[C@H](Cc2ccc(-c3ccccc3)cc2)NC(=O)[C@H](Cc2ccc(-c3ccccc3)cc2)NC(=O)[C@H](CN2CCOCC2)NC(=O)CSC[C@@H](C(=O)NCC(N)=O)NC1=O [Example 154] ({CH2CO}-[Ala(morpholin-4-yl)][Bip][Bip][Sar]YD[dR]VPV[hPhe]LCG-NH2; thioether N-13) , output reported IC50.
Response line: 50 to 200 nM

Prompt line: Input CC(=O)Nc1ccc(-c2ccc(C[C@@H]3NC(=O)[C@H](Cc4ccc(-c5ccccc5)cc4)NC(=O)[C@H](Cc4c[nH]c5ccccc45)NC(=O)CSC[C@@H](C(=O)NCC(N)=O)NC(=O)[C@H](CC(C)C)NC(=O)[C@H](Cc4ccc(O)cc4)NC(=O)[C@H](C(C)C)NC(=O)[C@@H]4CCCN4C(=O)[C@H](C(C)C)NC(=O)[C@@H](CCCNC(=N)N)NC(=O)[C@H](CC(=O)O)NC(=O)[C@H](Cc4ccccn4)NC(=O)CN(C)C3=O)cc2)cc1 [Example 197] ({CH2CO}-W[Bip][Bip(4'-NHAc)][Sar][2Pal]D[dR]VPVYLCG-NH2; thioether N-13) , output reported IC50.
Response line: 50 to 200 nM

Prompt line: Input CC(=O)Nc1ccc(-c2ccc(C[C@@H]3NC(=O)[C@H](Cc4ccc(-c5ccc(C(=O)O)cc5)cc4)NC(=O)[C@H](CC4CCCCC4)NC(=O)CSC[C@@H](C(=O)NCC(N)=O)NC(=O)[C@H](CC(C)C)NC(=O)[C@H](Cc4ccc(O)cc4)NC(=O)[C@H](C(C)C)NC(=O)[C@@H]4CCCN4C(=O)[C@H](CC(N)=O)NC(=O)[C@@H](CCCNC(=N)N)NC(=O)[C@H](CC(=O)O)NC(=O)[C@@H]4CCCN4C(=O)CN(C)C3=O)cc2)cc1 [Example 247] ({CH2CO}-[Cha][Bip(4'-COOH)][Bip(4'-NHAc)][Sar]PD[dR]NPVYLCG-NH2; thioether N-13) , output reported IC50.
Response line: 50 to 200 nM

Prompt line: Input CC(=O)Nc1ccc(-c2ccc(C[C@@H]3NC(=O)[C@H](Cc4ccc(-c5ccccc5)cc4)NC(=O)[C@H](CN4CCOCC4)NC(=O)CSC[C@@H](C(=O)NCC(N)=O)NC(=O)[C@H](CC(C)C)NC(=O)[C@H](CCCNC(=N)N)NC(=O)[C@H](C(C)C)NC(=O)[C@@H]4CCCN4C(=O)[C@H](C(C)C)NC(=O)[C@H](CCCNC(=N)N)NC(=O)[C@H](CC(=O)O)NC(=O)[C@@H]4CCCN4C(=O)CN(C)C3=O)cc2)cc1 [Example 126] ({CH2CO}-[Ala(morpholin-4-yl)][Bip][Bip(4'-NHAc)][Sar]PDRVPVRLCG-NH2; thioether N-13) , output reported IC50.
Response line: 50 to 200 nM

Prompt line: Input CC(=O)Nc1ccc(-c2ccc(C[C@@H]3NC(=O)[C@H](Cc4ccc(-c5ccccc5)cc4)NC(=O)[C@H](C(C)(C)C)NC(=O)CSC[C@@H](C(=O)NCC(N)=O)NC(=O)[C@H](CC(C)C)NC(=O)[C@H](Cc4ccccc4)NC(=O)[C@H](C(C)C)NC(=O)[C@@H]4CCCN4C(=O)[C@H](C(C)C)NC(=O)[C@@H](CCCNC(=N)N)NC(=O)[C@H](CC(=O)O)NC(=O)[C@H](Cc4ccc(O)cc4)NC(=O)CN(C)C3=O)cc2)cc1 [Example 263] ({CH2CO}-[Tle][Bip][Bip(4'-NHAc)][Sar]YD[dR]VPVFLCG-NH2; thioether N-13) , output reported IC50.
Response line: 50 to 200 nM
